Where do the numbers come from? From the Human Domainome abundance scans (Beltran et al. 2025).

B1: Homeobox expressed in ES cells 1, residues 110 to 165; numbered along this chain, Q9UBX0 (parent)
chain: RPRTAFTQNQIEVLENVFRVNCYPGIDIREDLAQKLNLEEDRIQIWFQNRRAKLKR

Variants of: B1
protocol-text: abundance fitness (aPCA) (normalised: wild type 0, dead -1); higher = more abundant; growth selection in yeast, the domain comes from the species named
measurement-context: Homo sapiens
Outcome label depends on abundance fitness relative to -0.2: at/above gives YES, below gives NO.

>  <mutation-string>
P2V

>  <label>
YES

$$$$
>  <mutation-string>
L32P

>  <label>
NO

$$$$
>  <mutation-string>
T4C

>  <label>
YES

$$$$
>  <mutation-string>
E15L

>  <label>
NO

$$$$
>  <mutation-string>
E15T

>  <label>
NO

$$$$

Kindly determine if abundance fitness recorded for `G25E` is above or exactly -0.2.
YES

Kindly determine if abundance fitness recorded for `D31N` is above or exactly -0.2.
YES

Kindly determine if abundance fitness recorded for `N21R` is above or exactly -0.2.
NO

Kindly determine if abundance fitness recorded for `A33I` is above or exactly -0.2.
NO

Kindly determine if abundance fitness recorded for `L32T` is above or exactly -0.2.
NO
